Tested on: lipoperoxide generation in rat cerebrum
assay protocol: Antioxidant activity (inhibition of lipoperoxide generation, method of Stocks et al.)
Format: biochemical
protocol conditions: 100 μM; rat cerebrum supernatant, 37° C., 15 min, thiobarbituric acid, 532 nm; hydrochloride salt
Decision: inhibition ratio, lipoperoxide generation (antioxidant activity) compared against 70%; not below it gives true (1), below it gives false (0).

Quick check, inhibition ratio, lipoperoxide generation (antioxidant activity) >= 70%? CCCCc1nc2c(nc1OCCN1CCCN(Cc3ccc(Cl)cc3)CC1)CCCC2 [Compound 520]
true (1)

Quick check, inhibition ratio, lipoperoxide generation (antioxidant activity) >= 70%? CCCCCCCCCCCCCCc1nc2c(nc1OCCN1CCCN(Cc3ccc(Cl)cc3)CC1)CCCC2 [Compound 603]
true (1)

Quick check, inhibition ratio, lipoperoxide generation (antioxidant activity) >= 70%? CCCCCCCCCCc1nc2c(nc1OCCN1CCN(Cc3ccccc3)CC1)CCCC2 [Compound 589]
true (1)

Quick check, inhibition ratio, lipoperoxide generation (antioxidant activity) >= 70%? CCCCCCCCc1nc2c(nc1OCCN1CCN(c3ccccc3OC)CC1)CCCC2 [Compound 578]
true (1)

Quick check, inhibition ratio, lipoperoxide generation (antioxidant activity) >= 70%? CCc1nc(C)c(C)nc1OC(C(=O)NCCN1CCN(Cc2ccc(Cl)cc2Cl)CC1)c1ccccc1 (centres unmarked) [Compound 345]
false (0)

Quick check, inhibition ratio, lipoperoxide generation (antioxidant activity) >= 70%? CCCCCCCCCCc1nc2c(nc1OCCN1CCN(c3ccc(OC)cc3)CC1)CCCC2 [Compound 593]
true (1)

Quick check, inhibition ratio, lipoperoxide generation (antioxidant activity) >= 70%? Cc1nc(Cc2ccccc2)c(OCCN2CCCN(Cc3ccc(Cl)cc3)CC2)nc1C [Compound 516]
true (1)

Quick check, inhibition ratio, lipoperoxide generation (antioxidant activity) >= 70%? CCCCCCCCCCc1nc2c(nc1OCCN1CCN(CCO)CC1)CCCC2 [Compound 588]
false (0)

Quick check, inhibition ratio, lipoperoxide generation (antioxidant activity) >= 70%? CCCCCCCCCCCCCCCCc1nc2c(nc1OCCN1CCN(Cc3ccccc3)CC1)CCCC2 [Compound 608]
false (0)

Quick check, inhibition ratio, lipoperoxide generation (antioxidant activity) >= 70%? CCCCCCCCCCc1nc2c(nc1OCCN1CCN(C(c3ccccc3)c3ccccc3)CC1)CCCC2 [Compound 591]
false (0)

Quick check, inhibition ratio, lipoperoxide generation (antioxidant activity) >= 70%? CCCCCCc1nc2c(nc1OCCN1CCCN(Cc3ccc(F)cc3)CC1)CCCC2 [Compound 569]
true (1)

Quick check, inhibition ratio, lipoperoxide generation (antioxidant activity) >= 70%? O=C(COc1nc2c(nc1Cc1ccccc1)CCCC2)NCCN1CCN(c2ccc(Cl)cc2)CC1 [Compound 371]
false (0)

Quick check, inhibition ratio, lipoperoxide generation (antioxidant activity) >= 70%? CCCCCCCCCCCCc1nc2c(nc1OCCN1CCOCC1)CCCC2 [Compound 594]
false (0)

Quick check, inhibition ratio, lipoperoxide generation (antioxidant activity) >= 70%? CCc1nc(Cc2ccccc2)c(OCC(=O)NCCN2CCCN(Cc3ccc(Cl)cc3)CC2)nc1CC [Compound 382]
true (1)

Quick check, inhibition ratio, lipoperoxide generation (antioxidant activity) >= 70%? O=C(COc1nc2c(nc1Cc1ccccc1)CCCC2)NCCN1CCCN(Cc2ccc(F)cc2)CC1 [Compound 372]
false (0)

Quick check, inhibition ratio, lipoperoxide generation (antioxidant activity) >= 70%? CCCCCCc1nc2c(nc1OCCN1CCN(c3ccccc3OC)CC1)CCCC2 [Compound 570]
false (0)
